The origin of these recorded values is paper PMC7872314.

Attribute: IC50
Test system: ZFL (hepatocytes) cell line
protocol notes: cells
Type: cell-based, zebrafish (Danio rerio)
condition notes: Danio rerio, Hepatocyte; ATP - ZFL; read-out: IC50
measure: IC50 (µM)

CO[C@H]1C[C@H](O[C@H]2[C@H](C)O[C@@H](O[C@@H]3/C(C)=C/C[C@@H]4C[C@@H](C[C@]5(C=C[C@H](C)[C@@H](C6CCCCC6)O5)O4)OC(=O)[C@@H]4C=C(C)[C@@H](O)[C@H]5OC/C(=C\C=C\[C@@H]3C)[C@]54O)C[C@@H]2OC)O[C@@H](C)[C@@H]1O :: 15.9
CCCSc1ccc2nc(NC(=O)OC)[nH]c2c1 :: 0.542
COC(=O)Nc1nc2ccc([S+]([O-])c3ccccc3)cc2[nH]1 (stereo not shown) :: 106
Cc1cc(-n2c(=O)[nH]c(=O)n(C)c2=O)ccc1Oc1ccc(SC(F)(F)F)cc1 :: 20.3
COC(=O)Nc1nc2ccc(Sc3ccccc3)cc2[nH]1 :: 9.85
CCC(C)C1OC2(CCC1C)CC1CC(CC=C(C)C(OC3CC(OC)C(OC4CC(OC)C(O)C(C)O4)C(C)O3)C(C)C=CC=C3COC4C(O)C(C)=CC(C(=O)O1)C34O)O2 (stereo not shown) :: 2.61
CC1(C)C(C=C(Cl)c2ccc(Cl)cc2)C1C(=O)OC(C#N)c1ccc(F)c(Oc2ccccc2)c1 (stereo not shown) :: 441

----------
Test system: zebrafish embryos
protocol notes: animal or person
Format: in vivo, zebrafish (Danio rerio)
condition notes: Danio rerio, read-out: EC50 48hpf
measure: log10(EC50) (log10 of the value in µM)

COC(=O)Nc1nc2ccc(Sc3ccccc3)cc2[nH]1 [Fenbendazole, fenbendazole] :: -1.11
CCC(C)C1OC2(CCC1C)CC1CC(CC=C(C)C(OC3CC(OC)C(OC4CC(OC)C(O)C(C)O4)C(C)O3)C(C)C=CC=C3COC4C(O)C(C)=CC(C(=O)O1)C34O)O2 (stereo not drawn) [Ivermectin, ivermectin] :: 0.23
CO[C@H]1C[C@H](O[C@H]2[C@H](C)O[C@@H](O[C@@H]3/C(C)=C/C[C@@H]4C[C@@H](C[C@]5(C=C[C@H](C)[C@@H](C6CCCCC6)O5)O4)OC(=O)[C@@H]4C=C(C)[C@@H](O)[C@H]5OC/C(=C\C=C\[C@@H]3C)[C@]54O)C[C@@H]2OC)O[C@@H](C)[C@@H]1O [Doramectin, doramectin] :: 0.09
CCCSc1ccc2nc(NC(=O)OC)[nH]c2c1 [Albendazole, albendazole] :: -0.78
CC1(C)C(C=C(Cl)c2ccc(Cl)cc2)C1C(=O)OC(C#N)c1ccc(F)c(Oc2ccccc2)c1 (stereo not drawn) [Flumethrin, flumethrin] :: -0.56
COC(=O)Nc1nc2ccc([S+]([O-])c3ccccc3)cc2[nH]1 (stereo not drawn) [Oxfendazole, oxfendazole] :: 1.39
